System: Mouse lung cancer (3LL)
PROTOCOL NOTES: Cytotoxicity in vitro, SRB and MTT methods, 72 h
Type: cell-based
SETTINGS: 3LL cells, read-out: Anti-cancer Activity IC50 In vitro, 3LL
PARAMETER: IC50 (nM)
Write the number in nM without appending the unit.

Sure, the documented IC50 for NC(=O)c1nnc(CC2CCCNC2)c2cc(-c3ccc(Cl)cc3)sc12 (stereo not shown) is 1240

---

Tested on: Human ovarian cancer (A2780)
PROTOCOL NOTES: Cytotoxicity in vitro, SRB and MTT methods, 72 h
Format: cell-based
SETTINGS: A2780 cells, read-out: Anti-cancer Activity IC50 In vitro, A2780
PARAMETER: IC50 (µM)
Write the number in µM without appending the unit.

Entry 2-(4-bromophenyl)-4-(3-α-thiopyranmethyl)-thieno[2,3-d]pyridazinyl-7-formamide [XXXXVI] , Human ovarian cancer (A2780) data, IC50 value: 30.3
